- assayed.target: EGFR (UniProt P00533)
- Sequence (P00533 whole entry, looked up): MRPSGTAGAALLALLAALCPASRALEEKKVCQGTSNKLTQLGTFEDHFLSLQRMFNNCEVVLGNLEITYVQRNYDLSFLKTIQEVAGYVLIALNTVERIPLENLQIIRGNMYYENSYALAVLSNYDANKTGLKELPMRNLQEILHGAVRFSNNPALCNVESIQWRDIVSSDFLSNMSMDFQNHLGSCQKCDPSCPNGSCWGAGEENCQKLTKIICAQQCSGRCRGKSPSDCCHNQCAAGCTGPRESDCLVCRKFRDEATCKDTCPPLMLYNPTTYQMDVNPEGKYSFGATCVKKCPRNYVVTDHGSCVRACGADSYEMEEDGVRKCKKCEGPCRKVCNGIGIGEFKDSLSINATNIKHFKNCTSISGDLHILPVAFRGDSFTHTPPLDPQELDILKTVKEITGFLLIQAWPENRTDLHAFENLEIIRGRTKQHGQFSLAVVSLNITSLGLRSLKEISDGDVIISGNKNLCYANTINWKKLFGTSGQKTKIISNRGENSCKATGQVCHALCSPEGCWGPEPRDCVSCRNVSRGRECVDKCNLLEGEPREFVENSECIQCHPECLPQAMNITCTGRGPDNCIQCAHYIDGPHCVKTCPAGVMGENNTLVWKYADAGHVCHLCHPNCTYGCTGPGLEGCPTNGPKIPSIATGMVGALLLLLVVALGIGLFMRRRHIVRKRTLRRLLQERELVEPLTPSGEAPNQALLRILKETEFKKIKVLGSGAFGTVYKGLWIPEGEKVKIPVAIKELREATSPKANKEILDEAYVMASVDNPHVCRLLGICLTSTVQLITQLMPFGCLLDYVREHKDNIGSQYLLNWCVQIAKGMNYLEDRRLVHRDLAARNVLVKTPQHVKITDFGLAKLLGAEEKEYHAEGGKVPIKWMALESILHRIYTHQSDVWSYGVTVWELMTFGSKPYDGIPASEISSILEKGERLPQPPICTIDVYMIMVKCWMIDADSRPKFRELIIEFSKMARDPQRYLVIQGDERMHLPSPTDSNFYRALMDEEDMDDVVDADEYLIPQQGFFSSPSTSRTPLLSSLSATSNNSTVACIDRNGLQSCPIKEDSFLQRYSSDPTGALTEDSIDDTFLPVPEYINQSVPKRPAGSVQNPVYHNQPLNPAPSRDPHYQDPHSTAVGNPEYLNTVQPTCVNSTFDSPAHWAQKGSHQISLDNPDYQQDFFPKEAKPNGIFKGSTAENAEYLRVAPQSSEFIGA
assay.readout: IC50 (pM)
Kindly provide the numeric value in pM only, without the unit symbol.

Identify measured IC50 obtained with EGFR (UniProt P00533) for C/C=C/C(=O)Nc1ccc2c(Nc3cccc(Br)c3)ncnc2c1 .
680

====

Entries and their pIC50 values follow.
- assayed.target: UniProt P48736
- Sequence (P48736 whole entry, looked up): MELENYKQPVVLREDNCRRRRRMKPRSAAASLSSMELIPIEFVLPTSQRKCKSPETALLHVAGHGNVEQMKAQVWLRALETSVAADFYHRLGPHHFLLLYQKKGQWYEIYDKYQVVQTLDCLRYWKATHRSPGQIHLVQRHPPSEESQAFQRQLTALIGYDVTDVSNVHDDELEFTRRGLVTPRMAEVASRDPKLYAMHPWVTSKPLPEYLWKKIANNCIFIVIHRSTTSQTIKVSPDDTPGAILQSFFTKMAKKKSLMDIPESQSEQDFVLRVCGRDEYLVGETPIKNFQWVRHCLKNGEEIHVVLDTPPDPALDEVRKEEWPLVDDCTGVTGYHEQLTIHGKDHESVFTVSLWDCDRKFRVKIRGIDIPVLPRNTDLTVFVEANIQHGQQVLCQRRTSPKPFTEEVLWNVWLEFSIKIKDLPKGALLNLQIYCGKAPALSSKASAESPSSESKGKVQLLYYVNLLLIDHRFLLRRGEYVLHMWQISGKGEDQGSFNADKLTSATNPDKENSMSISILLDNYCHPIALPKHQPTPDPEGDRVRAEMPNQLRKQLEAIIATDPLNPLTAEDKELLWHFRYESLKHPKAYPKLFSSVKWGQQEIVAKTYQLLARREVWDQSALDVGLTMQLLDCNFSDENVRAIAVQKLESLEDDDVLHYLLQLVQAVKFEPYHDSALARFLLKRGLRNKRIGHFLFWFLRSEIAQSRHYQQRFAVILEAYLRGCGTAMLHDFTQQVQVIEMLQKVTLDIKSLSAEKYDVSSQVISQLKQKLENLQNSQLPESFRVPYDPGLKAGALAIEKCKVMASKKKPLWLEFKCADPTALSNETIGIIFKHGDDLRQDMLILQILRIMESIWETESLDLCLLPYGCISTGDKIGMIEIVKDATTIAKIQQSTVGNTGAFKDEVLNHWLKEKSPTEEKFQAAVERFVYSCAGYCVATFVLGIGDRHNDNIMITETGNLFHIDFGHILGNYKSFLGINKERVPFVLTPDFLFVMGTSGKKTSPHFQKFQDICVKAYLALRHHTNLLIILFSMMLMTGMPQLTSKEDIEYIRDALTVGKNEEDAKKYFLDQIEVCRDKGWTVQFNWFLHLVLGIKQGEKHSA
- test: Inhibition of PIK3CG Kinase Activity
The meaning of pIC50 here: minus log10 of the concentration in molar units.

The following molecules have reported results that may help.
CCCn1c(C(=O)Nc2nnn[nH]2)c(-c2ccccc2)c2cc(OC)c(OC)cc21 5.38
CC(=O)Nc1nc(C)c(-c2csc(NCCC(N)=O)n2)s1 7.19
COc1cc(Nc2nc3ccccc3nc2NS(=O)(=O)c2ccc(CN(C)C)cc2)cc(OC)c1 7.57
COc1ccc(OC)c(Nc2nc3ccccc3nc2NS(=O)(=O)c2cccc(C#N)c2)c1 6.37

Consider the record given below.
State measured pIC50 of the molecule COc1cc2sc(C(=O)Nc3nnn[nH]3)c(OCC3(C)COC3)c2cc1OC with UniProt P48736.
6.35
